Value source: patent US20130316929A1

target: T1, Recombinant Human VEGF165 (human, UniProt P15692-4 27-191); assay: SPR, Biacore 3000, hVEGF immobilized on sensor chip, mutant applied at various concentrations
T1 construct: Isoform VEGF165; also called hVEGF
T1 sequence (P15692 other isoform, or with tags, fused parts or gaps limits assumed): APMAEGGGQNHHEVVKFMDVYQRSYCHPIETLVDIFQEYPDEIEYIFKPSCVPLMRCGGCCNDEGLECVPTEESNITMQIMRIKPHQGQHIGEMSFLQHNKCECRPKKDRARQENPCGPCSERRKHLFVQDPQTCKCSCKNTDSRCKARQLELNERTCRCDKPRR
pKd: −log10 of the molar value.
measuredProperty: pKd

# binder, reportedResult
records = [
    ("SLSCRKEQGKMYDLYGFDCRSCASMCGKHPDLCAYFCEN (designed binder, Expressed from pET-32a in E. coli Origami B; thioredoxin tag and His tag removed by thrombin cleavage; monomer peak of size exclusion chromatography used; also called the mutant) [hVEGF-binding TACI_d2 mutant (No. 9 in FIG. 4), purified monomer]", 4.85),
]
